Molecular target: RBDSARS-CoV (SARS-CoV S protein residues 318-510, C-terminal His-tag) (SARS-CoV, UniProt P59594 318-510)
Test: ELISA
MEASUREMENT TYPE: IC50

Please review the following examples before continuing.
1. 5p-180 (VHH) VHH: QVQLVESGGGLVQAGGSLRLSCVASGTISTLNAMGWYRQAPGKQRELLTSISNLGTTYSADSVKGRFTISRGNAKNTVYLQMDSLKPDDTAVYYCNTRVLEGTEYRDYWGQGTQVTVSS    > 8 µM
2. 4P-92 (VHH) VHH: QVQLVESGGGLVQTGGSLRLSCAVSGYTFSTFPTAWFRQAPGKEREFVAGIRWNGGSRDYTEYADFVKGRFTISRDNAKNMVYLQMISLKPEDTALYYCAASHGVIDGTSANDYRYWGQGTQVTVSS    1 to 8 µM
3. 5p-35 (VHH, class II(B) psNb) VHH: HVQLVESGGGLVQAGGSLRLSCAASGRTFSRYAAGWFRQAPGKEREFVAVIEWDGDSAYYADPVKGRFTISRDNAKNTVYLQMNRLKPEDTAVYICAVGGNHYSRSKYYNLDEYDDWGQGTQVTVSS    < 0.01 µM

Next, consider the following binder.
Query: Specify reported IC50 for the binder shown: 5p-162 (VHH) VHH: DVQLVESGGGFVQAGGSLRLSCADSGLTRSVWPMGWFRQAPGKEREFVAGIAWSGERQSYADFVKGRFTVSRDNARNTVYLQMNSLKPEDTAVYYCAAPTSGVFGRTYAPTATSSYDSWGQGTQVTVSS
Result: 0.01 to 0.1 µM
